Tested on: MCF-10A
Assay Details: Cytotoxicity against human MCF-10A cells assessed as reduction in cell viability incubated for 48 hrs by CCK8 assay
Type: cell-based

Molecule	System Under Test	Activity
Cc1noc([C@@H]2[C@@H](c3ccccc3)[C@H](C(F)(F)F)N[C@@]23C(=O)Nc2ccc(Cl)cc23)c1[N+](=O)[O-]	MCF-10A	Non-Toxic
Cc1noc([C@@H]2[C@@H](c3cccc4ccccc34)[C@H](C(F)(F)F)N[C@@]23C(=O)Nc2ccccc23)c1[N+](=O)[O-]	MCF-10A	Non-Toxic
Cc1ccccc1[C@H]1[C@H](C(F)(F)F)N[C@@]2(C(=O)Nc3ccccc32)[C@@H]1c1onc(C)c1[N+](=O)[O-]	MCF-10A	Non-Toxic
Cc1noc([C@@H]2[C@@H](c3ccccc3)[C@H](C(F)(F)F)N[C@@]23C(=O)Nc2ccc([N+](=O)[O-])cc23)c1[N+](=O)[O-]	MCF-10A	Non-Toxic
Cc1noc([C@@H]2[C@@H](c3cc(Cl)ccc3Cl)[C@H](C(F)(F)F)N[C@@]23C(=O)Nc2ccccc23)c1[N+](=O)[O-]	MCF-10A	Non-Toxic
Cc1noc([C@@H]2C(c3ccco3)[C@H](C(F)(F)F)N[C@@]23C(=O)Nc2ccccc23)c1[N+](=O)[O-] (single isomer, unassigned)	MCF-10A	Non-Toxic
C=CCN1C(=O)[C@@]2(N[C@@H](C(F)(F)F)[C@H](c3ccccc3)[C@H]2c2onc(C)c2[N+](=O)[O-])c2ccccc21	MCF-10A	Non-Toxic
Cc1noc([C@@H]2[C@@H](c3cccc(F)c3)[C@H](C(F)(F)F)N[C@@]23C(=O)Nc2ccccc23)c1[N+](=O)[O-]	MCF-10A	Non-Toxic
Cc1noc([C@@H]2[C@@H](c3ccccc3Br)[C@H](C(F)(F)F)N[C@@]23C(=O)Nc2ccccc23)c1[N+](=O)[O-]	MCF-10A	Non-Toxic

###

System: MCF-10A
Assay Details: Cytotoxicity against human MCF-10A cells assessed as reduction in cell viability incubated for 48 hrs by CCK8 assay
Assay type: cell-based

Smiles Record	System Under Test	Activity
Cc1noc([C@@H]2[C@@H](c3ccccc3)[C@H](C(F)(F)F)N[C@@]23C(=O)Nc2cc(Cl)ccc23)c1[N+](=O)[O-]	MCF-10A	Non-Toxic
Cc1noc([C@@H]2[C@@H](c3ccccc3)[C@H](C(F)(F)F)N[C@@]23C(=O)Nc2ccccc23)c1[N+](=O)[O-]	MCF-10A	Non-Toxic
Cc1noc([C@@H]2[C@@H](c3ccccc3)[C@H](C(F)(F)F)N[C@@]23C(=O)N(C)c2ccccc23)c1[N+](=O)[O-]	MCF-10A	Non-Toxic
Cc1ccc([C@H]2[C@H](C(F)(F)F)N[C@@]3(C(=O)Nc4ccccc43)[C@@H]2c2onc(C)c2[N+](=O)[O-])cc1	MCF-10A	Non-Toxic
Cc1noc([C@@H]2[C@@H](c3ccc([N+](=O)[O-])cc3)[C@H](C(F)(F)F)N[C@@]23C(=O)Nc2ccccc23)c1[N+](=O)[O-]	MCF-10A	Non-Toxic
COc1ccccc1[C@H]1[C@H](C(F)(F)F)N[C@@]2(C(=O)Nc3ccccc32)[C@@H]1c1onc(C)c1[N+](=O)[O-]	MCF-10A	Non-Toxic
Cc1noc([C@@H]2[C@@H](c3ccc(C(C)C)cc3)[C@H](C(F)(F)F)N[C@@]23C(=O)Nc2ccccc23)c1[N+](=O)[O-]	MCF-10A	Non-Toxic
Cc1noc([C@@H]2[C@@H](c3ccccc3Cl)[C@H](C(F)(F)F)N[C@@]23C(=O)Nc2ccccc23)c1[N+](=O)[O-]	MCF-10A	Non-Toxic
Cc1noc([C@@H]2[C@@H](c3ccccc3)[C@H](C(F)(F)F)N[C@@]23C(=O)Nc2cc(Br)ccc23)c1[N+](=O)[O-]	MCF-10A	Non-Toxic
Cc1noc([C@@H]2[C@@H](c3ccc(Cl)cc3)[C@H](C(F)(F)F)N[C@@]23C(=O)Nc2ccccc23)c1[N+](=O)[O-]	MCF-10A	Non-Toxic
Cc1noc([C@@H]2[C@@H](c3ccccc3)[C@H](C(F)(F)F)N[C@@]23C(=O)Nc2ccc(Br)cc23)c1[N+](=O)[O-]	MCF-10A	Non-Toxic
Cc1ccc2c(c1)[C@]1(N[C@@H](C(F)(F)F)[C@H](c3ccccc3)[C@H]1c1onc(C)c1[N+](=O)[O-])C(=O)N2	MCF-10A	Non-Toxic
Cc1noc([C@@H]2[C@@H](c3ccc(Cl)c(Cl)c3)[C@H](C(F)(F)F)N[C@@]23C(=O)Nc2ccccc23)c1[N+](=O)[O-]	MCF-10A	Non-Toxic
COc1ccc([C@H]2[C@H](C(F)(F)F)N[C@@]3(C(=O)Nc4ccccc43)[C@@H]2c2onc(C)c2[N+](=O)[O-])cc1OC	MCF-10A	Non-Toxic
